# system: Mitogen-activated protein kinase 1 (Homo sapiens, UniProt P28482)
# Sequence (P28482 whole entry): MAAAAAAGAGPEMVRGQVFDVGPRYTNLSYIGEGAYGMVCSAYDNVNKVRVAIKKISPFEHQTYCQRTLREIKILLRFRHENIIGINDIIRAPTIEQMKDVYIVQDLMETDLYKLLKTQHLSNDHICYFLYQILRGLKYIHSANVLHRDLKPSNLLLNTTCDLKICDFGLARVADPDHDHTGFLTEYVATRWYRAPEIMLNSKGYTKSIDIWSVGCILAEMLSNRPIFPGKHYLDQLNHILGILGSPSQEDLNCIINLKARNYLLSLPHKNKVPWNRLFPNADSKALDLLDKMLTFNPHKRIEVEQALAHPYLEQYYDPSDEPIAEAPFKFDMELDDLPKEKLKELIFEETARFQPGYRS
# test_description: Inhibition of ERK2
pIC50: −log10 of the molar value.
endpoint: pIC50

Query block: Given the entry "CN1C[C@@H]2C[C@H]1CN2c1ccc(-c2ccnc3c(-c4cccc(O)c4)c(-c4ccncc4)nn23)cc1" , report its measured pIC50.
Result block: < 4.30

----------
# system: Mitogen-activated protein kinase 14 (Homo sapiens)
# Sequence (Q16539 whole entry): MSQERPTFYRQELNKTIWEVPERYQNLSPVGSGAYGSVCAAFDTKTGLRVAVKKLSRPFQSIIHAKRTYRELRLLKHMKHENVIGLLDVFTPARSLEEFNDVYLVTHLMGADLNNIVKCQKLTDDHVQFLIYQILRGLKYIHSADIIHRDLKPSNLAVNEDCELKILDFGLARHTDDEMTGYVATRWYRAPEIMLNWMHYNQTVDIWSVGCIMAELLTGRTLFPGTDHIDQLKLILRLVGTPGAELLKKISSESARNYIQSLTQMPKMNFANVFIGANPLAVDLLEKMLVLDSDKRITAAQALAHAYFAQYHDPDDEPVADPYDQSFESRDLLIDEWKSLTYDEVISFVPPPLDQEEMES
# test_description: Inhibition of p38alpha
endpoint: IC50 (nM)
Respond numerically; units are nM and should not be typed.

Query block: Given the entry "CN1C[C@@H]2C[C@H]1CN2c1ccc(-c2ccnc3c(-c4cccc(O)c4)c(-c4ccncc4)nn23)cc1" , report its measured IC50.
Result block: 69
